# Assayed System: MET (wt) GST-tagged recombinant human MET kinase domain (Homo sapiens, UniProt P08581)
# Construct: GST-tagged recombinant human MET kinase domain
# Sequence (P08581 1078-1345 limits assumed): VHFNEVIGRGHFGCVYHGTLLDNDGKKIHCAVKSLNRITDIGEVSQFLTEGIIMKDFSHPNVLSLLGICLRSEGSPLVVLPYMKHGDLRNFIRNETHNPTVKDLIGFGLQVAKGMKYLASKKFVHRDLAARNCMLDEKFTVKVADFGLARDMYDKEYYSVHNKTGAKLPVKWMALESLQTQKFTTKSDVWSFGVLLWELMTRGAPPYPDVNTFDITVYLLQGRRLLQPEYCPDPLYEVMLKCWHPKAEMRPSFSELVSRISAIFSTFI
# Protocol Details: c-Met Enzyme Assay, wild type (LanthaScreen Eu Kinase Binding)
# Run Parameters: averaged IC50; MET (wt) 10 nM; 60-minute incubation at 22° C.; read-out: SigChem WT IC50
pIC50: −log10 of the molar value.
Assay Metric: pIC50

molecular_string=CNC(=O)Cn1cc(C(=O)Nc2ccc(Oc3ccnc4cc(OC)c(OC)cc34)cn2)c(=O)c(-c2ccc(F)cc2)c1 assayed_system="MET (wt) GST-tagged recombinant human MET kinase domain (Homo sapiens, UniProt P08581)" endpoint_value=8.74
molecular_string=COc1cc2nccc(Oc3ccc(NC(=O)c4cn(C(C)C)cc(-c5ccc(F)cc5)c4=O)nc3)c2cc1OC assayed_system="MET (wt) GST-tagged recombinant human MET kinase domain (Homo sapiens, UniProt P08581)" endpoint_value=8.62
molecular_string=COc1cc2nccc(Oc3ccc(NC(=O)c4cn(C(C)C)cc(-c5ccc(F)cc5C)c4=O)nc3)c2cc1OC assayed_system="MET (wt) GST-tagged recombinant human MET kinase domain (Homo sapiens, UniProt P08581)" endpoint_value=8.74
molecular_string=COc1cc2nccc(Oc3ccc(NC(=O)c4cn(CC(=O)N(C)C)cc(-c5ccc(Cl)cc5)c4=O)nc3)c2cc1OC assayed_system="MET (wt) GST-tagged recombinant human MET kinase domain (Homo sapiens, UniProt P08581)" endpoint_value=8.09
molecular_string=COc1cc2nccc(Oc3ccc(NC(=O)c4cn(CCN(C)C)cc(-c5ccc(F)cc5)c4=O)nc3)c2cc1OC assayed_system="MET (wt) GST-tagged recombinant human MET kinase domain (Homo sapiens, UniProt P08581)" endpoint_value=8.52
molecular_string=COc1cc2nccc(Oc3ccc(NC(=O)c4cn(CC(=O)N5CCCC5)cc(-c5ccc(F)cc5F)c4=O)nc3)c2cc1OC assayed_system="MET (wt) GST-tagged recombinant human MET kinase domain (Homo sapiens, UniProt P08581)" endpoint_value=8.11
molecular_string=CC(C)n1cc(C(=O)Nc2ccc(Oc3ccnc4cc(OC(F)(F)F)ccc34)cn2)c(=O)c(-c2ccc(F)cc2)c1 assayed_system="MET (wt) GST-tagged recombinant human MET kinase domain (Homo sapiens, UniProt P08581)" endpoint_value=7.23
molecular_string=COc1cc2nccc(Oc3ccc(NC(=O)c4cn(C(C)C)cc(-c5ccc(F)cc5OC)c4=O)nc3)c2cc1OC assayed_system="MET (wt) GST-tagged recombinant human MET kinase domain (Homo sapiens, UniProt P08581)" endpoint_value=8.52
molecular_string=COc1cc2nccc(Oc3ccc(NC(=O)c4cn(C(C)C)c(C)c(-c5ccc(F)cc5)c4=O)nc3)c2cc1OC assayed_system="MET (wt) GST-tagged recombinant human MET kinase domain (Homo sapiens, UniProt P08581)" endpoint_value=8.74
molecular_string=COc1cc2nccc(Oc3ccc(NC(=O)c4cn(CC(=O)N(C)C)cc(-c5ccc(F)cc5F)c4=O)nc3)c2cc1OC assayed_system="MET (wt) GST-tagged recombinant human MET kinase domain (Homo sapiens, UniProt P08581)" endpoint_value=8.47
molecular_string=CCC(CC)n1cc(C(=O)Nc2ccc(Oc3ccnc4cc(OC)c(OC)cc34)cn2)c(=O)c(-c2ccc(F)cc2F)c1 assayed_system="MET (wt) GST-tagged recombinant human MET kinase domain (Homo sapiens, UniProt P08581)" endpoint_value=8.21
molecular_string=COc1cc2nccc(Oc3ccc(NC(=O)c4c[nH]cc(-c5ccc(F)cc5)c4=O)nc3)c2cc1OC assayed_system="MET (wt) GST-tagged recombinant human MET kinase domain (Homo sapiens, UniProt P08581)" endpoint_value=8.22
molecular_string=COc1cc2c(Oc3ccc(NC(=O)c4cn(C(C)C)cc(-c5ccc(F)cc5)c4=O)nc3)ccnc2cc1OCCCN1CCOCC1 assayed_system="MET (wt) GST-tagged recombinant human MET kinase domain (Homo sapiens, UniProt P08581)" endpoint_value=8.41

---

# Assayed System: human MET kinase D1228N (Homo sapiens, UniProt P08581, D1228N)
# Construct: GST-tagged recombinant human MET kinase domain
# Sequence (P08581 1078-1345 D1228N): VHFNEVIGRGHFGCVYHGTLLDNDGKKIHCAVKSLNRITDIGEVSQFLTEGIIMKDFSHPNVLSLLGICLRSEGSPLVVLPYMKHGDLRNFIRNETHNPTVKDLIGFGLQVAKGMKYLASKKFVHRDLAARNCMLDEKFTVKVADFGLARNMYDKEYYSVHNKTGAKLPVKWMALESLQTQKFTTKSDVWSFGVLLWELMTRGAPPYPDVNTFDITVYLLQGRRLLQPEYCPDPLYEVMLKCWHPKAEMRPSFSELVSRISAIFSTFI
# Protocol Details: c-Met Enzyme Assay, D1228N mutant
# Run Parameters: averaged IC50; D1228N 2 nM; 60-minute incubation at 22° C.; read-out: D1228 N IC50
# Experimental: The affinity of compound binding to wild type and mutant human MET kinases was measured using Invitrogen's LanthaScreen™ Eu Kinase Binding technology. […] After a 60-minute incubation at 22° C., the reaction was measured using a PerkinElmer EnVision multimode plate reader via TR-FRET dual wavelength detection, and the percent of control (POC) calculated using a ratiometric emission factor. […]
pIC50: −log10 of the molar value.
The reader will find reported pIC50 values listed item by item below.
Assay Metric: pIC50

compound="CCn1cc(C(=O)Nc2ccc(Oc3ccnc4cc(OC)c(OC)cc34)cn2)c(=O)c(-c2ccc(F)cc2)c1 [Example 3]" endpoint_value=8.13
compound="CCn1cc(C(=O)Nc2ccc(Oc3ccnc4ccc(OC)cc34)cn2)c(=O)c(-c2ccc(F)cc2)c1 [Example 39]" endpoint_value=6.75
compound="COc1cc2nccc(Oc3ccc(NC(=O)c4cn(C(C)C)c(C)c(-c5ccc(F)c(F)c5)c4=O)nc3)c2cc1OC [Example 28]" endpoint_value=8.44
compound="COc1ccc2nccc(Oc3ccc(NC(=O)c4cn(C(C)C)c(C)c(-c5ccc(F)cc5)c4=O)nc3)c2c1 [Example 33]" endpoint_value=7.88
compound="COc1cc2nccc(Oc3ccc(NC(=O)c4cn(C(C)C)cc(-c5ccc(F)cc5F)c4=O)nc3)c2cc1OC [Example 4]" endpoint_value=8.19
compound="CC(C)n1cc(C(=O)Nc2ccc(Oc3ccnc4cc(OC(F)(F)F)ccc34)cn2)c(=O)c(-c2ccc(F)cc2)c1 [Example 50]" endpoint_value=6.35
compound="COc1cc2nccc(Oc3ccc(NC(=O)c4cn(CCN(C)C)cc(-c5ccc(F)c(F)c5)c4=O)nc3)c2cc1OC [Example 43]" endpoint_value=8.57
compound="COc1cc2nccc(Oc3ccc(NC(=O)c4cn(C(C)C)cc(-c5ccc(F)cc5)c4=O)nc3)c2cc1OC [Example 1]" endpoint_value=8.47

---

# Assayed System: MDR1 (P-gp) (Homo sapiens)
# Construct: expressed in transfected cells; host or cells: LLC-PK1
# Sequence (P08183 whole entry): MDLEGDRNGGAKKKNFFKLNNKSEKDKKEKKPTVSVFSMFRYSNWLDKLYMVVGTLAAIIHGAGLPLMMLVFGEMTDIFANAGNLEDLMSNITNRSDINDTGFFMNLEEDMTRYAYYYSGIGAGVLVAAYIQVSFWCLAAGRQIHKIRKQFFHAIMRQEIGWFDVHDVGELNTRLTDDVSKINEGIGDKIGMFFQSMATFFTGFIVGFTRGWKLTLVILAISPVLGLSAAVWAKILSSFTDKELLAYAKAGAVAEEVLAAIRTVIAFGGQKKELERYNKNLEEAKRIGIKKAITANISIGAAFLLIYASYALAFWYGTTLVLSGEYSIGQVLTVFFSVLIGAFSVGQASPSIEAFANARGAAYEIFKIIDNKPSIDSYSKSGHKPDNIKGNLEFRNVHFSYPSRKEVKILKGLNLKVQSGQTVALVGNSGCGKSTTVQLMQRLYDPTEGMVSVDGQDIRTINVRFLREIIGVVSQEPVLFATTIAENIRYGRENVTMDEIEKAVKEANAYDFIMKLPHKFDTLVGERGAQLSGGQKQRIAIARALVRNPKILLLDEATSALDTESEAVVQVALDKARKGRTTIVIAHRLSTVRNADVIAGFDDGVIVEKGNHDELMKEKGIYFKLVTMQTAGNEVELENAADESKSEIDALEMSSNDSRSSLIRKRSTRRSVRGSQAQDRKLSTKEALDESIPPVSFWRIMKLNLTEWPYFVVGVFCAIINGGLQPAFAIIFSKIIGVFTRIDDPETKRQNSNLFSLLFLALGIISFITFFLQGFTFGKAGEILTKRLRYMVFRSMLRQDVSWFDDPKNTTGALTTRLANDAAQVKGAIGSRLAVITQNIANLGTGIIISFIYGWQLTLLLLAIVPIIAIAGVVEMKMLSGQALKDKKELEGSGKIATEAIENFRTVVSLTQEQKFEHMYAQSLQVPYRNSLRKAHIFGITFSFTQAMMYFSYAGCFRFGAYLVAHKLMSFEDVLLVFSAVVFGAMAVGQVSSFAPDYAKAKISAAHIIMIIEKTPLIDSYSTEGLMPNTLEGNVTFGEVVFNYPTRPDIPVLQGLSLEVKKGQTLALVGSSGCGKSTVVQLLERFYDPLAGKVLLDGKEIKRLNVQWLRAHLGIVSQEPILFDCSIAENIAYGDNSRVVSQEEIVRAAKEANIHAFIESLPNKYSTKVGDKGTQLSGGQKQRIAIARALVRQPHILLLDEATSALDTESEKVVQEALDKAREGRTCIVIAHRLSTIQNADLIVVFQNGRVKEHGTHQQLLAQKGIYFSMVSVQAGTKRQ
# Protocol Details: MDR1 LLC-PK1 permeability assay
# Format: in vitro ADME
# Run Parameters: pig, LLC-PK1, efflux ratio = Papp(B-A)/Papp(A-B), MDR1 transfected LLC-PK1 cells; read-out: MDR1 Pe Ratio
Assay Metric: efflux ratio at 2 h, 1 μM

compound="CCn1cc(C(=O)Nc2ccc(Oc3ccnc4cc(OC)c(OC)cc34)cn2)c(=O)c(-c2ccc(F)cc2)c1 [Example 3]" endpoint_value=4.3
compound="COc1cc2nccc(Oc3ccc(NC(=O)c4cn(CCN(C)C)cc(-c5ccc(F)cc5)c4=O)nc3)c2cc1OC [Example 46]" endpoint_value=13
compound="COc1cc2ncc(C#N)c(Oc3ccc(NC(=O)c4cn(C(C)C)cc(-c5ccc(F)cc5)c4=O)nc3)c2cc1OC [Example 57]" endpoint_value=2.5
compound="COc1cc2nccc(Oc3ccc(NC(=O)c4c[nH]cc(-c5ccc(F)cc5)c4=O)nc3)c2cc1OC [Example 26]" endpoint_value=44
compound="COc1ccc2nccc(Oc3ccc(NC(=O)c4cn(C)cc(-c5ccc(F)cc5)c4=O)nc3)c2c1 [Example 41]" endpoint_value=2.5
compound="COc1ccc2nccc(Oc3ccc(NC(=O)c4cn(CCN(C)C)cc(-c5ccc(F)cc5)c4=O)nc3)c2c1 [Example 47]" endpoint_value=9.3
compound="COc1cc2nccc(Oc3ccc(NC(=O)c4cn(CC(=O)N(C)C)cc(-c5ccc(F)cc5F)c4=O)nc3)c2cc1OC [Example 13]" endpoint_value=112
compound="COc1cc2nccc(Oc3ccc(NC(=O)c4cn(C(C)C)cc(-c5ccc(F)cc5C)c4=O)nc3)c2cc1OC [Example 19]" endpoint_value=2.8
compound="COc1cc2nccc(Oc3ccc(NC(=O)c4cn(CC(=O)N5CCCC5)cc(-c5ccc(F)cc5F)c4=O)nc3)c2cc1OC [Example 14]" endpoint_value=125
compound="COc1cc2nccc(Oc3ccc(NC(=O)c4cn(C)cc(-c5ccc(F)cc5)c4=O)nc3)c2cc1OC [Example 2]" endpoint_value=8.3
compound="COc1cc2nccc(Oc3ccc(NC(=O)c4cn(C(C)C)cc(-c5ccc(F)c(Cl)c5)c4=O)nc3)c2cc1OC [Example 21]" endpoint_value=1.3
compound="COc1cc2c(Oc3ccc(NC(=O)c4cn(C(C)C)cc(-c5ccc(F)cc5)c4=O)nc3)ccnc2cc1F [Example 49]" endpoint_value=0.99
compound="COc1cc2nccc(Oc3ccc(NC(=O)c4cn(CCC(C)C)cc(-c5ccc(F)cc5)c4=O)nc3)c2cc1OC [Example 34]" endpoint_value=5.3
compound="COc1cc2nccc(Oc3ccc(NC(=O)c4cn(CCN(C)C)cc(-c5ccc(Cl)cc5)c4=O)nc3)c2cc1OC [Example 42]" endpoint_value=12
